Source listed as patent US20100048575A1.

System: HCT116 colon cancer cells
RUN_DESCRIPTION: HCT116 cell viability and proliferation assay (MTS)
Type: cell-based
REPORTED_CONDITIONS: Homo sapiens, HCT-116, 72 hours, mean of 3 independent experiments, read-out: HCT116 GI50 D3
REPORTED_ENDPOINT: GI50 (nM)

>>> experimental_value("C=CCON=C1c2ccccc2-c2nn3c(C)nnc3nc21 (mixture of isomers)")
1640

a. CON=C1c2ccccc2-c2nn3c(C)nnc3nc21 (mixture of isomers)
b. c1ccc(OCCCON=C2c3ccccc3-c3nn4nnnc4nc32)cc1 (mixture of isomers)
c. C=CCON=C1c2ccccc2-c2nn3c(CC)nnc3nc21 (mixture of isomers) [10f]
List the 3 entries from lowest GI50 to highest GI50 value. List each label, following the requested order.
b, a, c

---

TARGET_OR_TEST_SYSTEM: USP5 (Homo sapiens, UniProt P45974)
Sequence (P45974 whole entry, species assumed): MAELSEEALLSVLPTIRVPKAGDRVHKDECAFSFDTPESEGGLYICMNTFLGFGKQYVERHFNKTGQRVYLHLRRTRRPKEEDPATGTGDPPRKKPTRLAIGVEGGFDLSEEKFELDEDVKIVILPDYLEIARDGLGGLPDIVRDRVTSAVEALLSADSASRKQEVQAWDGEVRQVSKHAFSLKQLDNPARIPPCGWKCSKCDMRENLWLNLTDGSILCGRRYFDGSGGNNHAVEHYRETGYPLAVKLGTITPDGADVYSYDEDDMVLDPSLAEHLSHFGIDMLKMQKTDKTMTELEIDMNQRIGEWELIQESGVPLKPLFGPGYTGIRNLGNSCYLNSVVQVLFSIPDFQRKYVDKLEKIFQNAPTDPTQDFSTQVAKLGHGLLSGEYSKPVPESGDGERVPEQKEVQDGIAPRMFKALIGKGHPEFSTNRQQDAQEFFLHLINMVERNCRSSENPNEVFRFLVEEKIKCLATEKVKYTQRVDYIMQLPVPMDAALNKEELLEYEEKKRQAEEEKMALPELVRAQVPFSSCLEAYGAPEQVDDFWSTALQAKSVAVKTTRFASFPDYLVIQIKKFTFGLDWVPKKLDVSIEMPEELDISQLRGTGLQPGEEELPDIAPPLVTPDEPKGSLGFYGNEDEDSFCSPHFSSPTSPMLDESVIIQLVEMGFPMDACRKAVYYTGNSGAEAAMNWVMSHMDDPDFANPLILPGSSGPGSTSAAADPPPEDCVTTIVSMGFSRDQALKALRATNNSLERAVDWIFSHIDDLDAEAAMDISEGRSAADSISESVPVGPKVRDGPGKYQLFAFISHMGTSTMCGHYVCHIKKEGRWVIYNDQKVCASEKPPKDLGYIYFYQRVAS
pIC50: −log10 of the molar value.
REPORTED_ENDPOINT: pIC50

>>> experimental_value("CON=C1c2ccccc2-c2nn3c(C)nnc3nc21 (mixture of isomers) [5a]")
5.74
>>> experimental_value("C=CCON=C1c2ccccc2-c2nn3c(CC)nnc3nc21 (mixture of isomers) [10f]")
5.92

---

TARGET_OR_TEST_SYSTEM: USP7 (Homo sapiens, UniProt Q93009)
Sequence (Q93009 whole entry): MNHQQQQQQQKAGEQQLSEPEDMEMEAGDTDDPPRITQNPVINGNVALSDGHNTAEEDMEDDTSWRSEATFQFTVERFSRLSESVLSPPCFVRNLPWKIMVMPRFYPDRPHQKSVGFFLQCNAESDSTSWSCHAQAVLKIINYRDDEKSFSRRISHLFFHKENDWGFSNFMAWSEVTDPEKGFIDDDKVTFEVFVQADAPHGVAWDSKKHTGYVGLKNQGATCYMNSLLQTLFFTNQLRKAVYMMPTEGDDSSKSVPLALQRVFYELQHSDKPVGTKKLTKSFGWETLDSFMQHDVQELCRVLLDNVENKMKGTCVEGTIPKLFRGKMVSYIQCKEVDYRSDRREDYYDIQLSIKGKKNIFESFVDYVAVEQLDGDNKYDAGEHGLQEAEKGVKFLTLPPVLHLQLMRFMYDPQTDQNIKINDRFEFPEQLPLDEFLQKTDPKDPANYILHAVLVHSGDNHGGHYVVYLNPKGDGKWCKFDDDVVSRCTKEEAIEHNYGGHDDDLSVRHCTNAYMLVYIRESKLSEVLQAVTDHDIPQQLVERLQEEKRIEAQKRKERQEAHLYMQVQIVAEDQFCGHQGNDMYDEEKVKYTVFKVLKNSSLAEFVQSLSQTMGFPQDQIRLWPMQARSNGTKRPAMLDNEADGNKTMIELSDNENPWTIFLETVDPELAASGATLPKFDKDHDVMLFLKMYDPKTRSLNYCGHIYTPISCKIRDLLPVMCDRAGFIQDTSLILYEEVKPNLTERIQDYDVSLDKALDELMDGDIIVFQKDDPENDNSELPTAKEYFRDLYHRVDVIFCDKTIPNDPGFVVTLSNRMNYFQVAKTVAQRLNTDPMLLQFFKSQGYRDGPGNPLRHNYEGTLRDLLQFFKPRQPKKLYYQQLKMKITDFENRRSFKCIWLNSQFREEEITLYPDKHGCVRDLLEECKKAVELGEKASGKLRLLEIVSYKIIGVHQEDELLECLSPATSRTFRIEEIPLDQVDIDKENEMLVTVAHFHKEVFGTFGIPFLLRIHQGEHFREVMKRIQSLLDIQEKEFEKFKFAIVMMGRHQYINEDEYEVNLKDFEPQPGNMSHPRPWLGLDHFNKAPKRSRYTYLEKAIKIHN
REPORTED_ENDPOINT: IC50 (µM)

Illustrative cases are given below, each with its answer.
>>> experimental_value("CON=C1c2ccccc2-c2nn3c(C)nnc3nc21 (mixture of isomers)")
4
>>> experimental_value("CCc1nnc2nc3c(nn12)-c1ccccc1C3=NOC (mixture of isomers) [10b]")
4.84
>>> experimental_value("CCON=C1c2ccccc2-c2nn3c(CC)nnc3nc21 (mixture of isomers) [10d]")
3.11

1. CCc1nnc2nc3c(nn12)-c1ccccc1C3=NOCc1ccccc1 (mixture of isomers) [10h]
2. C=CCON=C1c2ccccc2-c2nn3c(CC)nnc3nc21 (mixture of isomers) [10f]
Please indicate which item has the smaller measured IC50: 1 versus 2 Respond with the label that goes with your answer.
2

---

TARGET_OR_TEST_SYSTEM: UniProt P07858
REPORTED_ENDPOINT: IC50 (nM)

>>> experimental_value("COCCON=C1c2ccccc2-c2nn3nnnc3nc21 (mixture of isomers) [8b]")
2100

P. C=CCON=C1c2ccccc2-c2nn3nnnc3nc21 (mixture of isomers) [compound 6]
Q. CON=C1c2ccccc2-c2nn3c(C)nnc3nc21 (mixture of isomers) [5a]
R. C=CCON=C1c2ccccc2-c2nn3c(CCCC)nnc3nc21 (mixture of isomers) [5d]
S. ON=C1c2ccccc2-c2nn3nnnc3nc21 (mixture of isomers) [compound 7]
List the 4 entries from lowest IC50 to highest IC50 value. List each label, following the requested order.
P, S, Q, R

---

For reference, IC50 measured on USP8 (Homo sapiens):
REPORTED_ENDPOINT: IC50 (nM)

>>> experimental_value("c1ccc(OCCCON=C2c3ccccc3-c3nn4nnnc4nc32)cc1 (mixture of isomers)")
225

1. CCON=C1c2ccccc2-c2nn3c(CC)nnc3nc21 (mixture of isomers) [10d]
2. C=CCON=C1c2ccccc2-c2nn3c(CCCC)nnc3nc21 (mixture of isomers)
3. C=CCON=C1c2ccccc2-c2nc3nnc(C)n3nc21 (mixture of isomers)
List the 3 entries from lowest IC50 to highest IC50 value. List each label, following the requested order.
1, 2, 3

---

TARGET_OR_TEST_SYSTEM: USP8 (Homo sapiens, UniProt P40818)
Construct: His tag (from vector pFastBac-HT) (N); made in house; host or cells: insect cells (Sf9 or High Five), baculovirus
Sequence (P40818 whole entry): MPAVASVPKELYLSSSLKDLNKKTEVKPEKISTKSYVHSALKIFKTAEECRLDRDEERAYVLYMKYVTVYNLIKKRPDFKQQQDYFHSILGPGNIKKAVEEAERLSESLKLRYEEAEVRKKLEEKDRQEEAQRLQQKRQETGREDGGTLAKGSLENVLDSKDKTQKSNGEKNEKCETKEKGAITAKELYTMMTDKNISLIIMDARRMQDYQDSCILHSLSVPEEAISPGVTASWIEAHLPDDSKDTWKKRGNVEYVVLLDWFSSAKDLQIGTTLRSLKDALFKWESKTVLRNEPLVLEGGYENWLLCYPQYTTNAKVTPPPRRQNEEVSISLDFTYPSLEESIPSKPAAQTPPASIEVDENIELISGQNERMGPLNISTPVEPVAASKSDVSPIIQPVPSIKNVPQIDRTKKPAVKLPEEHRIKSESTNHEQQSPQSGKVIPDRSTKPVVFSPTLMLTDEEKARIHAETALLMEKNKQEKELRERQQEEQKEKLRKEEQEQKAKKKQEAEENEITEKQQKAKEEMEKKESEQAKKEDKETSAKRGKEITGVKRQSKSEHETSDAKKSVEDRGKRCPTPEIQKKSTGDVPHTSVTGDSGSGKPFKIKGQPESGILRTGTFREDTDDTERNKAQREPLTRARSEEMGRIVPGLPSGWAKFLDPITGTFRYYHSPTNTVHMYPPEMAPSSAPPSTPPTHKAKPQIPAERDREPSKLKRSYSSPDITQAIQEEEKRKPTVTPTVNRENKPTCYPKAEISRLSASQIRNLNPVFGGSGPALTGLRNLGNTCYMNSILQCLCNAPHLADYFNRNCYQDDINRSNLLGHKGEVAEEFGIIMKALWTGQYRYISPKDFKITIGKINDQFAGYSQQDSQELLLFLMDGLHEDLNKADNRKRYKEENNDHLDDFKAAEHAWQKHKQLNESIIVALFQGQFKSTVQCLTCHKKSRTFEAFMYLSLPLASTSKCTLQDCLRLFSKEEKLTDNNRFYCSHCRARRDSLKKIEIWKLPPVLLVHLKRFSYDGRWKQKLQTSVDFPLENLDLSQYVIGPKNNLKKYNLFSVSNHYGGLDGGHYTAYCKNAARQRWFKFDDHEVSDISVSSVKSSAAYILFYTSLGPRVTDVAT
RUN_DESCRIPTION: USP8 activity assay (Ub-AMC)
Assay type: biochemical
REPORTED_CONDITIONS: 400 nM Ub-AMC, 630 pM enzyme, pH8.8, 30 min pre-incubation, 60 min at 37° C., sigmoidal fit; read-out: USP8 (inhibition of cysteine protease activity)
REPORTED_ENDPOINT: IC50 (nM)

1. CCc1nnc2nc3c(nn12)-c1ccccc1C3=NOCc1ccccc1 (mixture of isomers) [10h]
2. CCc1nnc2nc3c(nn12)-c1ccccc1C3=NOC (mixture of isomers) [10b]
3. CCCCCCCCCCON=C1c2ccccc2-c2nn3nnnc3nc21 (mixture of isomers)
4. C=CCON=C1c2ccccc2-c2nn3c(CC)nnc3nc21 (mixture of isomers) [10f]
Order the entries above by descending IC50. List each label, following the requested order.
3, 1, 2, 4
(3: 27800 nM, 1: 807 nM, 2: 528 nM, 4: 342 nM)

---

pIC50: −log10 of the molar value.
For reference, pIC50 measured on Uch-L3 (Homo sapiens):
REPORTED_ENDPOINT: pIC50

>>> experimental_value("C=CCON=C1c2ccccc2-c2nc3nnc(CCCC)n3nc21 (mixture of isomers)")
4.05

I. C=CCON=C1c2ccccc2-c2nc3nnc(C)n3nc21 (mixture of isomers)
II. C=CCON=C1c2ccccc2-c2nn3nnnc3nc21 (mixture of isomers)
Please indicate which item has the smaller measured pIC50: I versus II Respond with the label that goes with your answer.
I
(I: 4.29, II: 7.49)
